# Test system: Escherichia coli
# assayProcedure: Activity of Escherichia coli TOP10 beta-lactamase AmpC-A S287N mutant
reportedEndpoint: Km (µM)

>  <compound>
CC(=O)OCC1=C(C(=O)O)N2C(=O)[C@@H](NC(=O)Cc3cccs3)[C@H]2SC1 [CEPHALOTHIN]

>  <unitOfMeasure>
µM

>  <quantitativeResult>
5500

$$$$
>  <compound>
CO/N=C(\C(=O)N[C@@H]1C(=O)N2C(C(=O)O)=C(COC(C)=O)CS[C@H]12)c1csc(N)n1 [CEFOTAXIME]

>  <unitOfMeasure>
µM

>  <quantitativeResult>
100

$$$$
>  <compound>
CO[C@@]1(NC(=O)Cc2cccs2)C(=O)N2C(C(=O)O)=C(COC(N)=O)CS[C@@H]21 [CEFOXITIN]

>  <unitOfMeasure>
µM

>  <quantitativeResult>
700

$$$$
>  <compound>
C[C@@H](O)[C@H]1C(=O)N2C(C(=O)O)=C(SCCNC=N)C[C@H]12 [IMIPENEM ANHYDROUS]

>  <unitOfMeasure>
µM

>  <quantitativeResult>
200

$$$$
>  <compound>
CC(C)(O/N=C(\C(=O)N[C@@H]1C(=O)N2C(C(=O)[O-])=C(C[n+]3ccccc3)CS[C@H]12)c1csc(N)n1)C(=O)O [CEFTAZIDIME]

>  <unitOfMeasure>
µM

>  <quantitativeResult>
400

$$$$
